target: COX-1 (Homo sapiens); construct: Die Messung der COX1 Hemmung erfolgte in HEL-Zellen nach der Methode von Berg et al; endogenous in cells; assay: COX-1 inhibition in HEL cells (Tromboxan B2 by ELISA)
Sequence (P23219 24-599): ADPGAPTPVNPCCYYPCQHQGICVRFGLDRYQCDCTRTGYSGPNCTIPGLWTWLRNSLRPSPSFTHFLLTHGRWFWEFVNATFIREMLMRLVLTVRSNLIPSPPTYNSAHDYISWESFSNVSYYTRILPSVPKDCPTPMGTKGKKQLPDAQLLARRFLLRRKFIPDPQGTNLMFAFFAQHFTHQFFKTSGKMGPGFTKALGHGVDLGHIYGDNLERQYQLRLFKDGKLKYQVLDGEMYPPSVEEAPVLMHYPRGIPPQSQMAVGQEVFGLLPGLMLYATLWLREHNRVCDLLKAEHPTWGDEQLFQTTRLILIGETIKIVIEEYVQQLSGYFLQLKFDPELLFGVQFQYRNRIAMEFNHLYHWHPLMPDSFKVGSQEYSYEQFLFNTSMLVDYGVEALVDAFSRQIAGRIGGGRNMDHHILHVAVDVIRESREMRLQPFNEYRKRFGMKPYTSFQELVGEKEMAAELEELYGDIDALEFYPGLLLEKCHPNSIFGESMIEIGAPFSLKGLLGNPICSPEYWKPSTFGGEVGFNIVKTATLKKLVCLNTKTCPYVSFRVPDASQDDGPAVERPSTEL
// pIC50 lookup, one value per entry
Scale note: pIC50 = -log10(concentration in M).

// worked examples, pIC50 included
# molecule, pIC50
records = [
    ("O=C1c2ccccc2-n2c1nc1ccccc1c2=O [Verbindung 1, Indolo[2,1-b]chinazolin-6,12-dion]", 5.70),
    ("CN(CCO)c1ccc2c(=O)n3c(nc2c1)C(=O)c1cc(OC(F)(F)F)ccc1-3", 5.70),
]

## Input Which value of pIC50 has been reported for "CN(CC(=O)O)c1ccc2c(=O)n3c(nc2c1)C(=O)c1cc(Cl)ccc1-3" in the records?
## Output 5.30

## Input Could you do the same for "O=C1c2ccccc2-n2c1nc1ccc(Cl)cc1c2=O" , please?
## Output 5.00
